target: recombinant human EP4 receptor membrane protein (Homo sapiens, UniProt P35408); assay: Radioligand binding assay for EP4 receptor ([3H]-PGE2); conditions: [3H]-PGE2 1.5 nM; membrane protein 20 μg/well
Sequence (P35408 whole entry): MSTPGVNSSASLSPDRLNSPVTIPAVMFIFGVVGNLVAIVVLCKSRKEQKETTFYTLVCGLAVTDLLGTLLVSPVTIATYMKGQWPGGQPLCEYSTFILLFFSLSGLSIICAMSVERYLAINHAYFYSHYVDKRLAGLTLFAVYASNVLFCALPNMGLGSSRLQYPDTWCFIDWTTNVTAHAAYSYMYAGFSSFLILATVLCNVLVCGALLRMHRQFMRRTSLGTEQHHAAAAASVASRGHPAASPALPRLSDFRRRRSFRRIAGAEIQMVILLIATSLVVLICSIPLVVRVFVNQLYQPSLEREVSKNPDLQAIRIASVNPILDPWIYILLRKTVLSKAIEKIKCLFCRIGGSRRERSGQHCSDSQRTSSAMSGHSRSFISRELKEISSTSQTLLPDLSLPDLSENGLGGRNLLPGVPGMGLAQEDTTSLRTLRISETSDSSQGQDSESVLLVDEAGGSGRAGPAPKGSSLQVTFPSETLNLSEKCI
ENDPOINT NAME: IC50 (nM)

* C[C@H](NC(=O)c1c(C(F)F)nn(C)c1Oc1cccc(C2CC2)c1)c1ccc(C(=O)O)cc1 [Compound I-3] | 9
* CCc1cc(Oc2c(C(=O)N[C@@H](C)c3ccc(C(=O)O)cc3)c(C(F)F)nn2C)ccc1Cl [Compound I-11] | 6.8
* CC(C)c1cccc(Oc2c(C(=O)N[C@@H](C)c3ccc(C(=O)O)cc3)c(C(F)F)nn2C)c1 [Compound I-4] | 7.4
* C[C@H](NC(=O)c1c(C(F)F)nn(C)c1Sc1cccc(C(F)(F)F)c1)c1ccc(C(=O)O)cc1 [Compound I-35] | 28
* C[C@H](NC(=O)c1c(C(F)F)nn(C)c1Oc1cccc(OCC(F)(F)F)c1)c1ccc(C(=O)O)cc1 [Compound I-33] | 31

1. C[C@H](NC(=O)c1c(C(F)F)nn(C)c1Oc1cccc(CC(F)(F)F)c1)c1ccc(C(=O)O)cc1 [Compound I-6]
2. CCc1cccc(Oc2c(C(=O)N[C@@H](C)c3ccc(C(=O)O)cc3)c(C(F)F)nn2C)c1 [Compound I-1]
Could you tell me which of these two has the smaller IC50 figure? First: 1 Second: 2 Your answer should be the label of the entry you select.
1
(1: 11 nM, 2: 16 nM)
